# System: NCI-H226 lung
# protocol-notes: NCI tumour cell line growth inhibition, 48 h
As shown below, each of these compounds has a reported GI50 value.

Examples with answers:
mol-smiles | experimental-result
C[C@@H]1CN(C(=O)c2ccc(NC(=O)c3cc(O[C@H](C)c4c(Cl)ccc(F)c4Cl)c(N)nn3)cc2)C[C@H](C)N1 | 3900 nM
C=C1C(=O)O[C@H]2[C@H]1CC/C(COC(=O)CCCCC(=O)OC/C1=C/CC[C@@]3(C)O[C@H]3[C@H]3OC(=O)C(=C)[C@@H]3CC1)=C\CC[C@@]1(C)O[C@@H]21 | 1900 nM
Cn1nccc1Nc1nccc(-c2cc3c(s2)C(C)(C)N(CCN2CCOCC2)C3=O)n1 | 20200 nM

// switching to the query compound
(Q) Please indicate GI50 recorded for CN(C)c1ccc(N2Cc3ccccc3OC3=C2C(=O)c2c(O)ccc(O)c2C3=O)cn1
(A) 854 nM

---

As shown below, each of these molecules has a reported GI50 value.
# Tested on: SNB-75 CNS
# protocol-notes: NCI tumour cell line growth inhibition, 48 h

Examples with answers:
molecule | measured-on | GI50
Cn1cc(C2=C(c3cccc4ccccc34)C(=O)NC2=O)c2ccccc21 | SNB-75 CNS | 3.73 µM
CCCN(CCC)C(=O)C1=Cc2ccc(-c3ccc(C(=O)N4CCCC4)cc3)cc2N=C(N)C1 | SNB-75 CNS | 3.8 µM
O=S(=O)(O)O.[NH-]C1CCCCC1[NH-].[Pt+2] (stereo unspecified) | SNB-75 CNS | 0.722 µM
CC(C)=CCC[C@H](C)[C@@H]1CC[C@]2(C)C3CC[C@]4(OC4(C)C)C(CCCO)[C@]3(C)CC[C@@]12C (stereo partly specified) | SNB-75 CNS | 29.8 µM
Cn1nccc1Nc1nccc(-c2cc3c(s2)C(C)(C)N(CCN2CCOCC2)C3=O)n1 | SNB-75 CNS | 15.9 µM

// switching to the query molecule
(Q) Give reported GI50 for C/C=C(\C)C(=O)N[C@H]1CC[C@]2(C)C3CC[C@@]4(C)C(CC[C@@H]4C(C)N(C)C)C3CCC2[C@H]1OC(C)=O (stereo partly specified) (SNB-75 CNS)
(A) 1.65 µM

---

# System: LOX IMVI melanoma
# protocol-notes: NCI tumour cell line growth inhibition, 48 h
observation-type: TGI (µM)
Note: unit µM is implicit; provide only the numeric part.

compound | TGI, µM
CC(=O)O[C@H]1C(=O)[C@@]2(C)[C@H]([C@H](OC(=O)c3ccccc3)[C@]3(O)C[C@H](OC(=O)[C@H](OC(=O)OCCC(O)CO)[C@@H](NC(=O)c4ccccc4)c4ccccc4)C(C)=C1C3(C)C)[C@]1(OC(C)=O)CO[C@@H]1C[C@@H]2O (stereo partly drawn) | 22

(Q) Please indicate TGI recorded for COC1=C2CC(C)CC(OC)[C@@H](OC(=O)CCN)[C@H](C)/C=C(\C)C(OC(N)=O)C(OC)/C=C\C=C(/C)C(=O)NC(=CC1=O)C2=O (stereo partly drawn)
(A) 2.22

---

# Tested on: MOLT-4 leukemia
# protocol-notes: NCI tumour cell line growth inhibition, 48 h
Decide using TGI: a value greater than or equal to 20 µM is fulfilled, a smaller one is not fulfilled.

compound | label
COC(OC)C1OC(CO)C(n2cc(C)c(=O)[nH]c2=O)C1O (stereo not drawn) | fulfilled
COC1=C2CC(C)CC(OC)[C@@H](OC(=O)CCN)[C@H](C)/C=C(\C)C(OC(N)=O)C(OC)/C=C\C=C(/C)C(=O)NC(=CC1=O)C2=O (stereo partly drawn) | not fulfilled
CC[C@@H](C(=O)[C@@H](C)[C@@H](O)[C@H](C)[C@@H]1O[C@@H]([C@@H](CC)C(=O)O)CC[C@@H]1C)C1O[C@]2(C=CC(=O)[C@]3(CC[C@@](C)([C@H]4CC[C@](O)(CC)[C@H](C)O4)O3)O2)[C@H](C)C[C@@H]1C (stereo partly drawn) | not fulfilled

(Q) # bool: TGI of COc1cc(C2c3cc4c(cc3OC(NC3CCCCC3)C2C)OCO4)cc(OC)c1OC (stereo not drawn) >= 20 µM
(A) fulfilled

(Q) # bool: TGI of O=C1CC(c2ccc(N3CCOCC3)cc2)(c2ccsc2)NC(=O)C1Sc1ccccc1Cl (stereo not drawn) >= 20 µM
(A) fulfilled

(Q) # bool: TGI of COc1cc(C2=NN(C)C(c3ccc([N+](=O)[O-])o3)C2)cc(OC)c1OC (stereo not drawn) >= 20 µM
(A) fulfilled

(Q) # bool: TGI of COc1cc(/C=C2/C(=O)N(C(=O)OC(C)C)C(Cc3cc(OC)c(OC)c(C)c3OC)C(=O)N2Cc2ccccc2)c(OC)c(C)c1OC (stereo not drawn) >= 20 µM
(A) fulfilled

(Q) # bool: TGI of CCCCCCC(=O)OC[n+]1ccc2c(C)c3[nH]c4ccccc4c3c(C)c2c1 >= 20 µM
(A) not fulfilled

(Q) # bool: TGI of COc1cc2cc(C(=O)N3CC(CCl)c4c3cc([N+](=O)[O-])c3ccccc43)[nH]c2c(OC)c1OC (stereo not drawn) >= 20 µM
(A) fulfilled

(Q) # bool: TGI of C/C=C/c1c(O)c(=O)c2c(OC)cc(OC)c3c4c(OC)cc(OC)c5c(=O)c(O)c(/C=C/C)c(c1c23)c54 >= 20 µM
(A) fulfilled

(Q) # bool: TGI of C/C(CC(=O)Nc1ccc(Cl)c(Cl)c1)=N/NC(=O)C[n+]1ccccc1 >= 20 µM
(A) fulfilled

(Q) # bool: TGI of Cn1cc(-c2nc(-c3c[nH]c4ncccc34)cs2)c2cc(F)ccc21 >= 20 µM
(A) not fulfilled

(Q) # bool: TGI of CCN(CC)CCCC(C)Nc1cnc(C(=O)Nc2ccc(Cl)c3cccnc23)cn1 (stereo not drawn) >= 20 µM
(A) not fulfilled
